Mu-type opioid receptor (Homo sapiens, UniProt P35372): reported log10 of Ki for various compounds.
Sequence (P35372 whole entry): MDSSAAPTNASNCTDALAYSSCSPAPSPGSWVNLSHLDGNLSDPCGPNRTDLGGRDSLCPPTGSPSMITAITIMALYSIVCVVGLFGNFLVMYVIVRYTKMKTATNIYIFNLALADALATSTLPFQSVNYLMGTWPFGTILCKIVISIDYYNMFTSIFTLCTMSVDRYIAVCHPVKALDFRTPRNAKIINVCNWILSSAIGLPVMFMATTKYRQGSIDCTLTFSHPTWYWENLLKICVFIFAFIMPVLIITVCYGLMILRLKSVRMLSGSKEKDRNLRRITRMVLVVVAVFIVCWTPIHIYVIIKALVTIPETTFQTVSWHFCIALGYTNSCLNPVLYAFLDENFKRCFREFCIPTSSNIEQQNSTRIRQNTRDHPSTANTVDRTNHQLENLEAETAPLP
The base-10 logarithm of Ki, taken with Ki in µM, is what appears here.

Previously resolved entries follow.
CC(=O)N[C@H](Cc1c[nH]c2c(Br)cccc12)C(=O)N[C@@H](Cc1ccccc1)C(=O)NCC(N)=O; -0.72
CC(=O)N[C@H](Cc1c(C)[nH]c2ccccc12)C(=O)N[C@@H](Cc1ccccc1)C(=O)NCC(N)=O; -0.50
O=C1CNC(=O)[C@H](Cc2ccccc2)NC(=O)[C@@H](Cc2c[nH]c3ccccc23)NC(=O)CNC(=O)[C@H](Cc2ccc(O)cc2)N1; -2.44
CC(=O)N[C@H](Cc1c[nH]c2ccc(Br)cc12)C(=O)N[C@@H](Cc1ccccc1)C(=O)NCC(N)=O; -0.94
CC(=O)N[C@H](Cc1c[nH]c2ccc([N+](=O)[O-])cc12)C(=O)N[C@@H](Cc1ccccc1)C(=O)NCC(N)=O; -1.28

Then this compound:
Consider CC(=O)N[C@H](Cc1c(C)[nH]c2c(Br)cccc12)C(=O)N[C@@H](Cc1ccccc1)C(=O)NCC(N)=O . Its measured log10 of Ki is -2.39
